src = patent US20240376151A1

tested on: Expi293 cells; experiment: CellTiter-Glo cell health (ATP levels) during cell association assay; type: cell-based; conditions: reflective of cell health, luminescence Tfinal (22 hours) / Tinitial

COMPOUND	CellTiter-Glo fold change ± SD
CCCC[C@H](NC(=O)[C@@H](NC(C)=O)C(C)C)C(=O)N[C@@H](CCC(N)=O)C(=O)N[C@]1(C)CCCCCCC=CCCC[C@@](C)(C(=O)N[C@@H](Cc2c[nH]cn2)C(=O)N[C@@H](Cc2ccc(O)cc2)C(=O)N[C@H](C(N)=O)C(C)C)NC(=O)[C@H]([C@@H](C)CC)NC(=O)[C@H](Cc2ccccc2)NC(=O)[C@H](C)NC(=O)[C@H](C)NC(=O)[C@H](CCC(N)=O)NC(=O)[C@H](Cc2ccc(O)cc2)NC1=O (single isomer, unassigned) [FP07872]	1.1
CCCC[C@H](NC(=O)[C@@H](NC(C)=O)C(C)C)C(=O)N[C@@H](CCC(=O)O)C(=O)N[C@]1(C)CCCCCCC=CCCC[C@@](C)(C(=O)N[C@@H](Cc2c[nH]cn2)C(=O)N[C@@H](Cc2ccc(O)cc2)C(=O)N[C@H](C(N)=O)C(C)C)NC(=O)[C@H]([C@@H](C)CC)NC(=O)[C@H](Cc2ccccc2)NC(=O)[C@H](C)NC(=O)[C@H](C)NC(=O)[C@H](CCC(=O)O)NC(=O)[C@H](Cc2ccc(O)cc2)NC1=O (single isomer, unassigned) [FP07856]	1.3
CC[C@H](C)[C@H](NC(C)=O)C(=O)N[C@@H](CC(C)C)C(=O)N[C@@H](CCC(N)=O)C(=O)N[C@]1(C)CCCCCCC=CCCC[C@@](C)(C(=O)N[C@@H](Cc2c[nH]cn2)C(=O)N[C@@H](Cc2ccc(O)cc2)C(=O)N[C@@H](CCC(N)=O)C(N)=O)NC(=O)[C@H](CO)NC(=O)[C@H](Cc2ccccc2)NC(=O)[C@H](C)NC(=O)[C@H](C)NC(=O)[C@H](CCC(=O)O)NC(=O)[C@H](Cc2ccc(O)cc2)NC1=O (single isomer, unassigned) [FP07859]	1.2
CCCC[C@H](NC(=O)[C@@H](NC(C)=O)C(C)C)C(=O)N[C@@H](CCC(=O)O)C(=O)N[C@]1(C)CCCCCCC=CCCC[C@@](C)(C(=O)N[C@@H](Cc2c[nH]cn2)C(=O)N[C@@H](Cc2ccc(O)cc2)C(=O)N[C@H](C(N)=O)C(C)C)NC(=O)[C@H]([C@@H](C)CC)NC(=O)[C@H](Cc2ccccc2)NC(=O)[C@H](C)NC(=O)[C@H](C)NC(=O)[C@H](CCC(=O)O)NC(=O)[C@H](Cc2ccc(O)cc2)NC1=O (single isomer, unassigned) [FP07855]	1.2
CC[C@H](C)[C@H](NC(=O)[C@H](Cc1ccc(O)cc1)NC(=O)[C@H](CCC(N)=O)NC(=O)[C@]1(C)CCCC=CCCCCCC[C@@](C)(NC(=O)[C@H](Cc2c[nH]cn2)NC(=O)[C@@H](NC(=O)[C@@H](NC(C)=O)[C@@H](C)CC)[C@@H](C)CC)C(=O)N[C@@H](Cc2ccc(O)cc2)C(=O)N[C@@H](CCC(=O)O)C(=O)N[C@@H](C)C(=O)N[C@@H](C)C(=O)N[C@@H](Cc2ccccc2)C(=O)N[C@@H](Cc2ccccc2)C(=O)N1)C(N)=O (single isomer, unassigned) [FP08012]	1.1
CCCC[C@H](NC(=O)[C@@H](NC(C)=O)C(C)C)C(=O)N[C@@H](CCC(N)=O)C(=O)N[C@]1(C)CCCCCCC=CCCC[C@@](C)(C(=O)N[C@@H](Cc2c[nH]cn2)C(=O)N[C@@H](Cc2ccc(O)cc2)C(=O)N[C@H](C(N)=O)C(C)C)NC(=O)[C@H]([C@@H](C)CC)NC(=O)[C@H](Cc2ccccc2)NC(=O)[C@H](C)NC(=O)[C@H](C)NC(=O)[C@H](CCC(N)=O)NC(=O)[C@H](Cc2ccc(O)cc2)NC1=O (single isomer, unassigned) [FP07871]	1.2

====

Molecular target: RNF31 UBA domain (Homo sapiens, UniProt Q96EP0)
Construct: RNF31 UBA domain protein (residues 480-639) with N-terminal Thioredoxin-TEV-6×his-yBBr-3C tags; Thioredoxin (N, cleaved yes); made in house; host or cells: E. coli BL21 (DE3) pLysS
Sequence (Q96EP0 480-639): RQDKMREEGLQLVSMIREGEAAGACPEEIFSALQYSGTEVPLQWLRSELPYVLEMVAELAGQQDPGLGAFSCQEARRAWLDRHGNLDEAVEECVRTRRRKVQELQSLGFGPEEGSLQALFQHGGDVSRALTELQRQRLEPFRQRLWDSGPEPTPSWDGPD
Test: Phage Library Screening with NGS, RNF31 UBA domain
Assay type: binding
Details: RNF31 UBA domain cluster C46; target concentration 1000, first column
Please use label 1 whenever Phage library screen NGS readout, Target Concentration 1000 is not below 90, and label 0 whenever it is.

DPAALACLSAAVYCEMY label 1
DPALTNCFSAAVYCAMF label 1
DPAHVRCTSAALWCNIF label 0
DPASASCLSAAIYCSMF label 1
DPAEQRCLSAAVYCAWH label 0
DPAQRQCLSAAVFCATL label 1
DPAQRQCLSAAVWCATF label 1
DPAVQSCLSAAVYCAFR label 1
DPAASQCFSAAVYCAWI label 0
DPAQMSCFSAAVYCRLF label 0
DPALRTCLSAAVFCAVA label 0
DPAQLNCLSAAMYCALY label 1
DPAQMFCYSAAVYCAAF label 0
DPALQSCLSAAVYCTVS label 0

====

biological target: CUL1 (Homo sapiens, UniProt Q13616, L371D/V367R); construct: CUL1 (Uniprot ID: Q13616, residue 15-410, V367R/L371D); GST-TEV (N, cleaved yes); made in house; host or cells: E. coli BL21 CodonPlus; assay: Naive Library Presenter Screening (phage, NGS), CUL1; type: binding; conditions: CUL1 target concentration 10 nM
Sequence (Q13616 15-410 V367R/L371D): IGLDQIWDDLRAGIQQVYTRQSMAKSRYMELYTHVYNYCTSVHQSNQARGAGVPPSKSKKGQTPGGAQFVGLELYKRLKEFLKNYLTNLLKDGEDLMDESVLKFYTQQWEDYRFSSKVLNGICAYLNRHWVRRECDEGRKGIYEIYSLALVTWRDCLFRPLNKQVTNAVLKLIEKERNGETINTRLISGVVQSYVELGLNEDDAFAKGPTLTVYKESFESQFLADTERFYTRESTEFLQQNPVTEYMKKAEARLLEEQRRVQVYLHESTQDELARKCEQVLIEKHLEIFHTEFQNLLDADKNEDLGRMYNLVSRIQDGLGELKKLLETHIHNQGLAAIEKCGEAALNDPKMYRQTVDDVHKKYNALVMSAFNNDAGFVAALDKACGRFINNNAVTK
Reported values of interaction data at Target Concentration 10 for individual entries
READOUT: interaction data at Target Concentration 10

DPAVMECDWAATICDIF 0
DPAQNDCEVAAFFCWLD 1
DPAEAACDIAALMCIID 15
DPAEFVCDWAALACLVD 4
DPAEQMCDIAAVWCLAH 0
DPAEVHCDMAALYCIIR 3
DPAEMQCDYAAILCIVR 0
DPAQILCDLAALYCVVE 0
DPAIIQCDQAALWCVVT 0
DPAYDWCDVAALFCLVE 0
DPAMLQCDMAALWCMVS 1
DPAEQECDHAALWCIVA 14
DPAYFACDIAALMCTVH 0

====

Here, each record is paired with measured Phage library screen NGS readout, Target Concentration 1000 data.
Target: RNF31 PUB domain (Homo sapiens, UniProt Q96EP0)
Construct: MBP-TEV (N, cleaved yes); made in house; host or cells: E. coli BL21 (DE3) pLysS
Sequence (Q96EP0 1-179): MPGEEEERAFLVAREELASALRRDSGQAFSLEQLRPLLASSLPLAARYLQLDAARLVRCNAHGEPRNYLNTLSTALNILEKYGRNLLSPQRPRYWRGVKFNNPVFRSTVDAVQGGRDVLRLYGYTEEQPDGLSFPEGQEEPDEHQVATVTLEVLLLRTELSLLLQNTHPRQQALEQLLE
Assay: Phage Library Screening with NGS, RNF31 PUB domain
Format: binding
Conditions: RNF31 PUB domain clusters C41-C45; target concentration 1000, second column
READOUT: Phage library screen NGS readout, Target Concentration 1000

SEQUENCE_ENTRY	OBSERVED_MEASUREMENT
DPALEDCQWAALYCDEY	9
DPAWWNCLYAADECWSW	6
DPAYDWCMYAAYNCVED	38
DPALDYCLYAAYDCMYA	12
DPAIQECLLAAATCWTY	4
DPAYDWCLYAAYQCDQN	40
DPALRDCLDAAIMCTYT	7
DPAQDQCISAAVLCTYT	37
DPAMEWCWDAAVFCTYS	16
DPAADDCEWAALYCSFH	8
DPALVTCTWAAIYCDDF	10
DPAWNDCLYAAETCISW	1
DPARDWCLYAAYDCYTA (Ac-DPARDWCLYAAYDCYTA-NH2; not fully specified (bridges); cysteine pairing not given here)	353
DPAADQCDIAAFVCSTY	17
DPAMQECMDAAIMCTYA	8

====

Molecular target: CUL4B (Homo sapiens, UniProt Q13620, L520D/V516R)
Construct: GST-TEV (N, cleaved yes); made in house; host or cells: E. coli BL21 CodonPlus
Sequence (Q13620 206-557 V516R/L520D): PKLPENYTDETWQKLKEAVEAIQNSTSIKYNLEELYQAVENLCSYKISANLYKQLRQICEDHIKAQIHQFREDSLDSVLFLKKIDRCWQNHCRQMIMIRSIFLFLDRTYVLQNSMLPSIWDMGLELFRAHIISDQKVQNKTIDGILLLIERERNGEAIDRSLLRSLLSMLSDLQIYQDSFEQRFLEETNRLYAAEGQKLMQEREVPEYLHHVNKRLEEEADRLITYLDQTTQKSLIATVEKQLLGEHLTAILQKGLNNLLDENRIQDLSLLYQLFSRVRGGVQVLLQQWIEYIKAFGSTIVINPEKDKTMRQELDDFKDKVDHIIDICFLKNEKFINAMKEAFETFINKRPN
Assay: Naive Library Presenter Screening (phage, NGS), CUL4B
Assay type: binding
Settings: CUL4B target concentration 30 nM
READOUT: interaction data at Target Concentration 30

DPASRMCEMAAWFCENY 3
DPAERHCQLAAWVCHQF 0
DPAMNHCVLAAWVCDTF 0
DPADRYCDMAAWVCERF 1
DPATTECILAAWICDRF 0
DPASRLCELAAWVCDSF 15
DPAQRACQFAAWICERF 0
DPADRWCELAAWICDEF 0
DPATRHCIFAAWACDRF 0
